System: SK-MEL-2 melanoma
TEST_DETAILS: NCI-60 one-dose screen, 48 h (100 = growth as untreated, 0 = no growth, -100 = all killed)
PROTOCOL_CONDITIONS: 10 µM unless noted
This is part of a sample that, as a whole, favours compounds with a hit. Of some 83,000 tested, about 20% had one in any assay. Where a SMILES comes first, the peptide text is derived from it. The star is where a group is joined. Trt = c1ccc(C(c2ccccc2)(c2ccccc2)*)cc1; Cbz = O=C(OCc1ccccc1)*
The following ranges of growth define the classes used here: category 1: < 40%; category 2: ≥ 40% and < 90%; category 3: ≥ 90%

COMPOUND | CATEGORY_LABEL
CC1(C)CC([P+](c2ccccc2)(c2ccccc2)c2ccccc2)=NN1 | category 1
COC(=O)[C@@]12OC[C@]34[C@H]([C@@H](O)[C@@H]1O)[C@@]1(C)[C@H](O)C(=O)C=C(C)[C@@H]1C[C@H]3OC(=O)C(OC(C)=O)[C@@H]24 (stereo partly drawn) | category 1
C[n+]1c(/C=C/c2ccc([N+](=O)[O-])cc2)ccc2ccccc21 | category 3
COc1cc(/C=C/C(C)=O)ccc1O | category 3
CCC1OC(OC)C=CC1=O (stereo not drawn) | category 3
CCOC(=O)/C(=C\c1ccc(-c2ccccc2)cc1)C(C)=O | category 3
O=[N+]([O-])c1ccc(N=Nc2ccc(O)cc2O)cc1 | category 2
CCN1/C(=C\c2cc[n+](CC)c3ccccc23)C=Cc2ccccc21 | category 1
NC(N)=N/N=C/c1ccc([N+](=O)[O-])o1 | category 2
COC(=O)c1nc(=S)[nH]c(C(=O)OC)c1C(=O)c1ccc2ccccc2c1 | category 3
C=CCOc1ccc(N=NC(C#N)C#N)cc1 | category 2
N#CSCC(=O)c1ccc(Cl)cc1 | category 2
Oc1c(Br)cc(Cl)cc1C(c1cc(Cl)cc(Br)c1O)C(Cl)(Cl)Cl | category 1
CCCCCCCCCCCCCCCC[N+](C)(CCO)Cc1cnc[nH]1 (stereo not drawn) | category 1
O=C1N[C@H]2[C@H](CS[C@H]2CCCCC(=O)N(CCP(c2ccccc2)c2ccccc2)CCP(c2ccccc2)c2ccccc2)N1 | category 2
COC(=O)C(CSC(c1ccccc1)(c1ccccc1)c1ccccc1)NC(=O)C(CC(N)=O)NC(=O)OCc1ccccc1 (stereo not drawn) (Cbz-Asn-Cys(Trt)-OMe; configuration not given here) | category 1
O=C(CC1(O)C(=O)Nc2c(Cl)ccc(Cl)c21)c1ccc(Cl)cc1Cl (stereo not drawn) | category 3
CCOc1ccc(-c2nc3ccc(-c4nc5ccc(N6CCN(C)CC6)cc5[nH]4)cc3[nH]2)cc1 | category 1

Data origin, for the record: PubChem BioAssay (NCI)
